These entries and their values trace back to paper PMC8266241.

molecular target: recombinant human MIF (Homo sapiens, UniProt P14174); construct: purchased ATGen Co. Ltd., Seoul, Republic of Korea; assay: Tautomerase assay: keto-enol tautomeric conversion of phenylpyruvate (enolase activity); assay type: biochemical; settings: keto-enol conversion of phenylpyruvate; read-out: Inhibition of enolase (IC50)
Sequence (P14174 2-115 limits assumed): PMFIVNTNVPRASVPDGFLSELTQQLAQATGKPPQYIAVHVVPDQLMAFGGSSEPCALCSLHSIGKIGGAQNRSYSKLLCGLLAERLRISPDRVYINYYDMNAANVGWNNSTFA
Measured Attribute: pIC50
pIC50 is defined as minus the log10 of a concentration measured in mol/L.

Cc1ccc(/C=C2\COc3ccccc3C2=O)cc1
2.44
O=C1/C(=C/c2ccccc2Br)COc2ccccc21
2.49
O=C1C(=Cc2cccnc2)CCc2ccccc21
4.54

Look up pIC50 for this compound: O=C1/C(=C/c2ccc3c(c2)OCO3)CCc2ccccc21 3.67

Endpoint output: pIC50 of N#Cc1ccc(/C=C2\CCc3ccccc3C2=O)cc1 . Value? 4.36

So what's the measured pIC50 for this one? O=C1/C(=C/c2ccccc2Cl)CCc2ccccc21 3.34

What value of pIC50 has been recorded for this entry: O=C1/C(=C/c2c[nH]c3ccccc23)CCc2ccccc21 5.54

Given O=C1/C(=C/c2ccccc2)CS(=O)(=O)c2ccccc21 , state its recorded pIC50. 3.82

Request the reported pIC50 associated with O=C1/C(=C/c2ccc(Cl)cc2)CCc2ccccc21 4.37

Look at this compound and give its reported pIC50. COc1ccc(/C=C2\COc3ccccc3C2=O)cc1 3.37

====

molecular target: recombinant human MIF (Homo sapiens, UniProt P14174); construct: purchased ATGen Co. Ltd., Seoul, Republic of Korea; test: Tautomerase assay: keto-enol tautomeric conversion of phenylpyruvate (enolase activity); assay type: biochemical; conditions: keto-enol conversion of phenylpyruvate; read-out: Inhibition of enolase (IC50)
Measured Attribute: pIC50
Scale: pIC50 equals -log10([C]), with [C] in mol/L.

O=C1/C(=C/c2ccco2)CCc2ccccc21
4.60
O=C1/C(=C/c2cccs2)CCc2ccccc21
4.28
O=C1/C(=C/c2ccccc2)COc2ccccc21
2.76
O=C1/C(=C/c2ccccc2)CCCc2ccccc21
3.89

Consider the molecule O=C1/C(=C/c2c(Cl)cccc2Cl)CCc2ccccc21 and give its measured pIC50. 4.45

====

molecular target: recombinant human MIF (Homo sapiens, UniProt P14174); construct: purchased ATGen Co. Ltd., Seoul, Republic of Korea; test: Tautomerase assay: enol-keto tautomeric conversion of phenylpyruvate (ketonase reaction); type: biochemical; settings: enol-keto conversion of phenylpyruvate, 100 µM substrate, pH 6.5; read-out: Inhibition of ketonase (IC50)
Measured Attribute: IC50 (µM)
Lab book: enter the figure in µM, no units written.

Worked examples follow.
O=C1/C(=C/c2ccc(Cl)cc2)CCc2ccccc21
59.1
O=C1C(=Cc2cccnc2)CCc2ccccc21
20.3
O=C1/C(=C/c2c(Cl)cccc2Cl)CCc2ccccc21
58.9
O=C1/C(=C/c2ccc[nH]2)CCc2ccccc21
142
O=C(O)c1ccc(/C=C2\CCc3ccccc3C2=O)cc1
187

IC50 for O=C1/C(=C/c2cccc(Br)c2)CCc2ccccc21 ? 7340

What does the data say about its IC50? Entry: O=C1/C(=C\c2ccccc2)CSc2ccccc21 208

====

target: recombinant human MIF (Homo sapiens, UniProt P14174); construct: purchased ATGen Co. Ltd., Seoul, Republic of Korea; assay: Tautomerase assay: keto-enol tautomeric conversion of phenylpyruvate (enolase activity); format: biochemical; conditions: keto-enol conversion of phenylpyruvate; read-out: Inhibition of enolase (IC50)
Measured Attribute: IC50 (µM)
Give the value, in units of µM, as a plain number.

Look over these answered cases.
CN(C)c1ccc(/C=C2\CCc3ccccc3C2=O)cc1
495
O=C1/C(=C/c2ccc(Br)cc2)COc2ccccc21
1890
COc1cccc(/C=C2\COc3ccccc3C2=O)c1
205
O=C1/C(=C/c2ccc(Cl)c(Cl)c2)CCc2ccccc21
91.5
O=C1/C(=C/c2cccc(Br)c2)CCc2ccccc21
3350
O=C(O)c1ccc(/C=C2\CCc3ccccc3C2=O)cc1
37.7
O=C1/C(=C\c2ccccc2)CSc2ccccc21
633
COc1ccc(/C=C2\CCc3ccccc3C2=O)cc1
33.4

Query: IC50; subject: O=C1/C(=C/c2ccccc2)Cc2ccccc21 20.2

Would you mind telling me what IC50 value was observed for O=C1/C(=C/c2ccc(F)cc2)CCc2ccccc21 ? 42.1
